- tested_system: human recombinant HDAC6 (Homo sapiens, UniProt Q9UBN7)
- Construct: purchased Calbiochem Inc. 382180
- Sequence (Q9UBN7 whole entry): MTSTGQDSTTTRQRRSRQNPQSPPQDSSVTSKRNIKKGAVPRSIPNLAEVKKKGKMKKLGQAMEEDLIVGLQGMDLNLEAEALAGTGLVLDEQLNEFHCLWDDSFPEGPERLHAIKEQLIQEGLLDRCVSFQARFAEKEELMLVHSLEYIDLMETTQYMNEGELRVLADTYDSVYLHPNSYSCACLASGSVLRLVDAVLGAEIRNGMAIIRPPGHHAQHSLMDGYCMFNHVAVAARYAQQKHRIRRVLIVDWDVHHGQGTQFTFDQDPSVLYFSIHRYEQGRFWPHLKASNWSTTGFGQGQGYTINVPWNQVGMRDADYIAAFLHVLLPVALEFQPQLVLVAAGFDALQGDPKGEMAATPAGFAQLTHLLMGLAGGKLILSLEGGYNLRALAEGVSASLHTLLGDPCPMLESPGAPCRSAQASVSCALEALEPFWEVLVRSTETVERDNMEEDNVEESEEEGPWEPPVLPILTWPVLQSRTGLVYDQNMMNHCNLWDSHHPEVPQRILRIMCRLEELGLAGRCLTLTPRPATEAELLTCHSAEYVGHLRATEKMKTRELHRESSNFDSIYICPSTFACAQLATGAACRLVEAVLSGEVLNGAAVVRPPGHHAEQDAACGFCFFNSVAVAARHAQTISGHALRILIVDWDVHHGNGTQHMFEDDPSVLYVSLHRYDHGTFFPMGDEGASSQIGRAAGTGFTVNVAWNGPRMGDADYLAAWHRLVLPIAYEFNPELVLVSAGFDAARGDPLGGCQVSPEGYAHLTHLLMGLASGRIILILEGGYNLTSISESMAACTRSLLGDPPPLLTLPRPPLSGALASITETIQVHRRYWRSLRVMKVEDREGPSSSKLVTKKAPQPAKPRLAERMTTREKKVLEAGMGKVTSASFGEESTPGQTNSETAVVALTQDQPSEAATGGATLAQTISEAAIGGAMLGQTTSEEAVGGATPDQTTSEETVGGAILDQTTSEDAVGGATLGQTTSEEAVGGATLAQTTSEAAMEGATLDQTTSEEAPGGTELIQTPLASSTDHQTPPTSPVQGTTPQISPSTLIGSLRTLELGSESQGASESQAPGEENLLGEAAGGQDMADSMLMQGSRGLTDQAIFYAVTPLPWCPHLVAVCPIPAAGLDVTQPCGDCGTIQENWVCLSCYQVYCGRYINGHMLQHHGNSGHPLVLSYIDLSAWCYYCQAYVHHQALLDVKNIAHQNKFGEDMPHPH
- method_summary: HDAC enzyme activity inhibition assay (HDAC Fluorimetric Drug Discovery Kit), HDAC6
- Type: biochemical
- measurement_parameters: HDAC1 vs HDAC6
The following compounds are listed with their measured HDAC6 selectivity (fold) values.

entry_smiles | HDAC6 selectivity (fold)
CCCN1CCC(N2CC(F)(C(=O)N(Cc3ccc(-c4nnc(C(F)F)o4)cn3)c3ccccc3)C2)CC1 | 2,024 fold
O=C(N(Cc1ccc(-c2nnc(C(F)F)o2)cn1)c1cccc(F)c1)C1(F)CN(CC2CCOCC2)C1 | 1,187 fold
CC(C)C(=O)N1CC(F)(C(=O)N(Cc2ccc(-c3nnc(C(F)F)o3)cc2F)c2ccccc2)C1 | 441 fold

meta.source: patent US20230278995A1
